Origin of the recorded values: patent US20130224224A1

Measured IC50, listed per entry for reference.
Target: T1, human CX3CR1 (human, UniProt P49238 1-355)
T1 construct: overexpressed on CHO, BA/F3 or HEK293T cells; also called huCX3CR1; hCX3CR1
T1 sequence: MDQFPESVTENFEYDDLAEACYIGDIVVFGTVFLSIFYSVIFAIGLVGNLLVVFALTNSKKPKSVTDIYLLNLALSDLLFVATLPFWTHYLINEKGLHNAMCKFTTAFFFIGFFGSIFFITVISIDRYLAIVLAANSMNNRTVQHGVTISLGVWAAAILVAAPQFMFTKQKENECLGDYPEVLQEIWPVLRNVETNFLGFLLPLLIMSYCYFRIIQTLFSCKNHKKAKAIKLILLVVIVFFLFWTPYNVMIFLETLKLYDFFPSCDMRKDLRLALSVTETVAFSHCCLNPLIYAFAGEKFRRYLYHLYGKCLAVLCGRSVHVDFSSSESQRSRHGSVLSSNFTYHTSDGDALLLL
Test: A647-fractalkine competition FACS, HEK293-huCX3CR1
Quick reminder: number only, in nM, skip the unit.

BINDER: CX3CR1BIIPMP61E2 (VHH, also called 61E02; not shown: C-terminal c-myc and His6 tags) VHH: EVQLVESGGGSVQAGESLRLSCAASGSIFSSNAMAWYRQAPGKQRDLVAGINSVGITKYADSVKGRFTISRDNAKNTVYLQMNSLKPEDMAVYYCTSDPRRGWDTRYWGQGTQVTVSS
IC50 [nM]: 82

Q: Respond only with IC50 recorded for CX3CR1BIIPMP54D5 (VHH, also called 54D05; CX3CR1BII54D5; not shown: C-terminal c-myc and His6 tags) VHH: EVQLVESGGGSVQAGESLRLSCAASGSIFSSNAMAWYRQAPPGKQRDLVALINSVGITKYADSVKGRFTISSDNAKNTVYLEMNSLKPEDTAVYYCTSDGRRGWDTRYWGQGTQVTVSS
Ans: 5.3

Q: Respond only with IC50 recorded for CX3CR1BIIPMP54A12 (VHH, also called CX3CR1BII54A12; not shown: C-terminal c-myc and His6 tags) VHH: EVQLVESGGGSVQAGESLRLSCAASGSIFSSNAMAWYRQAPGKQRDLVAVINSVGITKYADSVKGRFTISGDNAKNTVYLQMNSLKPEDTAVYYCTSDARRGWDTRYWGQGTQVTVSS
Ans: 6.8

Q: Respond only with IC50 recorded for CX3CR1BIIPMP61F11 (VHH, not shown: C-terminal c-myc and His6 tags) VHH: KVQLVESGGGSVQAGESLRLSCAASGSIFSSNAMAWYRQPPGKQRDLVAAINSVGITKYADSVKGRFTIFRDNAKNTVYLQMNSLKPEDTAVYYCTSDPRRGWDTRYWGQGTQVTVSS
Ans: 46
